- Tested on: osteosarcoma cell line SJSA-1
- EXPERIMENTAL_DETAILS: Cell viability (MTT) assay, SJSA-1
- Format: cell-based
- EXPERIMENTAL_CONDITIONS: 50 µM
Quick reference for Viability of Cells (% of Control) among some compounds

Illustrative cases are given below, each with its answer.
COMPOUND	RESULT
C[C@H](CC(=O)C[C@@H](C)[C@H]1C[C@H](O)[C@@]2(C)C3=C(C(=O)C[C@]12C)[C@@]1(C)CCC(=O)C(C)(C)[C@@H]1C[C@@H]3O)C(=O)NCc1ccc(Cl)cc1 [Compound A7]	81.6 ± 2.8 % of Control
CCCCNC(=O)[C@H](C)CC(=O)C[C@@H](C)[C@H]1C[C@H](O)[C@@]2(C)C3=C(C(=O)C[C@]12C)[C@@]1(C)CCC(=O)C(C)(C)[C@@H]1C[C@@H]3O [Compound A1]	87.9 ± 0.9 % of Control
Cc1ccc(CCNC(=O)[C@H](C)CC(=O)C[C@@H](C)[C@H]2C[C@H](O)[C@@]3(C)C4=C(C(=O)C[C@]23C)[C@@]2(C)CCC(=O)C(C)(C)[C@@H]2C[C@@H]4O)cc1 [Compound A10]	80.0 ± 2.7 % of Control
C[C@H](CC(=O)C[C@@H](C)[C@H]1C[C@H](O)[C@@]2(C)C3=C(C(=O)C[C@]12C)[C@@]1(C)CCC(=O)C(C)(C)[C@@H]1C[C@@H]3O)C(=O)N1CCN(c2ccccc2)CC1 [Compound A15]	75.9 ± 0.9 % of Control
Cc1ccc(NC(=O)[C@H](C)CC(=O)C[C@@H](C)[C@H]2C[C@H](O)[C@@]3(C)C4=C(C(=O)C[C@]23C)[C@@]2(C)CCC(=O)C(C)(C)[C@@H]2C[C@@H]4O)cc1 [Compound A3]	85.3 ± 1.1 % of Control
C[C@H](CC(=O)C[C@@H](C)[C@H]1C[C@H](O)[C@@]2(C)C3=C(C(=O)C[C@]12C)[C@@]1(C)CCC(=O)C(C)(C)[C@@H]1C[C@@H]3O)C(=O)Nc1ccc(Cl)cc1 [Compound A4]	83.9 ± 5.4 % of Control
Cc1ccc(CNC(=O)[C@H](C)CC(=O)C[C@@H](C)[C@H]2C[C@H](O)[C@@]3(C)C4=C(C(=O)C[C@]23C)[C@@]2(C)CCC(=O)C(C)(C)[C@@H]2C[C@@H]4O)cc1 [Compound A5]	75.0 ± 2.6 % of Control
C[C@H](CC(=O)C[C@@H](C)[C@H]1C[C@H](O)[C@@]2(C)C3=C(C(=O)C[C@]12C)[C@@]1(C)CCC(=O)C(C)(C)[C@@H]1C[C@@H]3O)C(=O)NCc1cc(Cl)cc(Cl)c1 [Compound A8]	92.4 ± 1.4 % of Control
C[C@H](CC(=O)C[C@@H](C)[C@H]1C[C@H](O)[C@@]2(C)C3=C(C(=O)C[C@]12C)[C@@]1(C)CCC(=O)C(C)(C)[C@@H]1C[C@@H]3O)C(=O)NCCc1ccc(Cl)cc1 [Compound A12]	73.5 ± 1.2 % of Control

Recorded Viability of Cells (% of Control) for C[C@H](CC(=O)C[C@@H](C)[C@H]1C[C@H](O)[C@@]2(C)C3=C(C(=O)C[C@]12C)[C@@]1(C)CCC(=O)C(C)(C)[C@@H]1C[C@@H]3O)C(=O)NCc1ccc(F)cc1 [Compound A6] on osteosarcoma cell line SJSA-1 was 92.6 ± 3.1 % of Control

====

- Tested on: HK-2 cells
- EXPERIMENTAL_DETAILS: Cell viability (MTT) assay, HK-2 normal cells (cytotoxicity)
- Format: cell-based
- EXPERIMENTAL_CONDITIONS: 50 µM
MEASURED_METRIC: Viability of Cells (% of Control)

Would you please look over these solved cases?
MOLECULE	Viability of Cells (% of Control)
C[C@H](CC(=O)C[C@@H](C)[C@H]1C[C@H](O)[C@@]2(C)C3=C(C(=O)C[C@]12C)[C@@]1(C)CCC(=O)C(C)(C)[C@@H]1C[C@@H]3O)C(=O)NCc1ccc(Cl)cc1 [Compound A7]	86.2 ± 3.7 % of Control
C[C@H](CC(=O)C[C@@H](C)[C@H]1C[C@H](O)[C@@]2(C)C3=C(C(=O)C[C@]12C)[C@@]1(C)CCC(=O)C(C)(C)[C@@H]1C[C@@H]3O)C(=O)NCCc1ccc(F)cc1 [Compound A11]	89.8 ± 9.6 % of Control
C[C@H](CC(=O)C[C@@H](C)[C@H]1C[C@H](O)[C@@]2(C)C3=C(C(=O)C[C@]12C)[C@@]1(C)CCC(=O)C(C)(C)[C@@H]1C[C@@H]3O)C(=O)NC1Cc2ccccc2C1 [Compound A9]	79.0 ± 2.9 % of Control

response.value for C[C@H](CC(=O)C[C@@H](C)[C@H]1C[C@H](O)[C@@]2(C)C3=C(C(=O)C[C@]12C)[C@@]1(C)CCC(=O)C(C)(C)[C@@H]1C[C@@H]3O)C(=O)N1CCN(c2ccccc2)CC1 [Compound A15] (field: Viability of Cells (% of Control)) = 123.3 ± 5.5 % of Control

====

Measured Viability of Cells (% of Control) accompanies every entry in the list below.
- Test system: osteosarcoma cell line SJSA-1
- EXPERIMENTAL_DETAILS: Cell viability (MTT) assay, SJSA-1
- Assay type: cell-based
- EXPERIMENTAL_CONDITIONS: 100 µM

Cc1ccc(CNC(=O)[C@H](C)CC(=O)C[C@@H](C)[C@H]2C[C@H](O)[C@@]3(C)C4=C(C(=O)C[C@]23C)[C@@]2(C)CCC(=O)C(C)(C)[C@@H]2C[C@@H]4O)cc1 64.5 ± 1.2 % of Control
CCCCNC(=O)[C@H](C)CC(=O)C[C@@H](C)[C@H]1C[C@H](O)[C@@]2(C)C3=C(C(=O)C[C@]12C)[C@@]1(C)CCC(=O)C(C)(C)[C@@H]1C[C@@H]3O 74.0 ± 3.8 % of Control
C[C@H](CC(=O)C[C@@H](C)[C@H]1C[C@H](O)[C@@]2(C)C3=C(C(=O)C[C@]12C)[C@@]1(C)CCC(=O)C(C)(C)[C@@H]1C[C@@H]3O)C(=O)NCc1ccc(F)cc1 65.8 ± 3.2 % of Control
C[C@H](CC(=O)C[C@@H](C)[C@H]1C[C@H](O)[C@@]2(C)C3=C(C(=O)C[C@]12C)[C@@]1(C)CCC(=O)C(C)(C)[C@@H]1C[C@@H]3O)C(=O)N1CCN(c2ccccc2)CC1 83.5 ± 0.8 % of Control

Observed Viability of Cells (% of Control) on osteosarcoma cell line SJSA-1, entry Cc1ccc(CCNC(=O)[C@H](C)CC(=O)C[C@@H](C)[C@H]2C[C@H](O)[C@@]3(C)C4=C(C(=O)C[C@]23C)[C@@]2(C)CCC(=O)C(C)(C)[C@@H]2C[C@@H]4O)cc1 , equals 75.6 ± 4.8 % of Control

====

- Test system: HK-2 cells
- EXPERIMENTAL_DETAILS: Cell viability (MTT) assay, HK-2 normal cells (cytotoxicity)
- Format: cell-based
- EXPERIMENTAL_CONDITIONS: 50 µM
# Viability of Cells (% of Control) per entry

Please review the entries below; each comes with its answer.
C[C@H](CC(=O)C[C@@H](C)[C@H]1C[C@H](O)[C@@]2(C)C3=C(C(=O)C[C@]12C)[C@@]1(C)CCC(=O)C(C)(C)[C@@H]1C[C@@H]3O)C(=O)NCc1cc(Cl)cc(Cl)c1 107.8 ± 14.3 % of Control
Cc1ccc(CNC(=O)[C@H](C)CC(=O)C[C@@H](C)[C@H]2C[C@H](O)[C@@]3(C)C4=C(C(=O)C[C@]23C)[C@@]2(C)CCC(=O)C(C)(C)[C@@H]2C[C@@H]4O)cc1 110.4 ± 13.1 % of Control
Cc1ccc(CCNC(=O)[C@H](C)CC(=O)C[C@@H](C)[C@H]2C[C@H](O)[C@@]3(C)C4=C(C(=O)C[C@]23C)[C@@]2(C)CCC(=O)C(C)(C)[C@@H]2C[C@@H]4O)cc1 110.9 ± 9.6 % of Control
C[C@H](CC(=O)C[C@@H](C)[C@H]1C[C@H](O)[C@@]2(C)C3=C(C(=O)C[C@]12C)[C@@]1(C)CCC(=O)C(C)(C)[C@@H]1C[C@@H]3O)C(=O)NCc1ccc(F)cc1 89.6 ± 6.9 % of Control

Record C[C@H](CC(=O)C[C@@H](C)[C@H]1C[C@H](O)[C@@]2(C)C3=C(C(=O)C[C@]12C)[C@@]1(C)CCC(=O)C(C)(C)[C@@H]1C[C@@H]3O)C(=O)NCCc1ccc(Cl)cc1 ; system HK-2 cells; Viability of Cells (% of Control) = 124.1 ± 2.6 % of Control

Provenance of the data: paper PMC10004777
